# System: HCT-116, MCF-7 and HeLa
# test_name: MTT cytotoxicity, summary statements on all tested tumor cell lines together
# Format: cell-based, human
# details: MTT 72 h
metric_name: cytotoxic activity for all tested cell lines (in words)

> print(dat)
                                   molecule        system.under.test          measured
1  Cc1ccc(S(=O)(=O)N2CCN(c3nc(N)nc(CSc4cc(Cl)c(C)cc4S(=O)(=O)N=C4NCCN4Cc4ccccc4)n3)CC2)cc1 [Compound 71]  HCT-116, MCF-7 and HeLa  loss of activity
2  Cc1cc(S(=O)(=O)N=C2NCCN2Cc2ccc(C(F)(F)F)cc2)c(SCc2nc(N)nc(N(C)C)n2)cc1Cl [Compound 118]  HCT-116, MCF-7 and HeLa          inactive
3  Cc1cc(S(=O)(=O)N=C2NCCN2)c(SCc2nc(N)nc(N3CCN(C)CC3)n2)cc1Cl [Compound 30]  HCT-116, MCF-7 and HeLa          inactive
4  Cc1cc(S(=O)(=O)N=C2NCCN2Cc2ccccc2)c(SCc2nc(N)nc(N3CCN(S(=O)(=O)c4ccccc4)CC3)n2)cc1Cl [Compound 70]  HCT-116, MCF-7 and HeLa  loss of activity
